- measured-target: Platelet rich plasma, PRP (Canis lupus familiaris, UniProt A0A8I3N5G5+A0A8I3PMU9)
- Sequence (A0A8I3N5G5 1-1047): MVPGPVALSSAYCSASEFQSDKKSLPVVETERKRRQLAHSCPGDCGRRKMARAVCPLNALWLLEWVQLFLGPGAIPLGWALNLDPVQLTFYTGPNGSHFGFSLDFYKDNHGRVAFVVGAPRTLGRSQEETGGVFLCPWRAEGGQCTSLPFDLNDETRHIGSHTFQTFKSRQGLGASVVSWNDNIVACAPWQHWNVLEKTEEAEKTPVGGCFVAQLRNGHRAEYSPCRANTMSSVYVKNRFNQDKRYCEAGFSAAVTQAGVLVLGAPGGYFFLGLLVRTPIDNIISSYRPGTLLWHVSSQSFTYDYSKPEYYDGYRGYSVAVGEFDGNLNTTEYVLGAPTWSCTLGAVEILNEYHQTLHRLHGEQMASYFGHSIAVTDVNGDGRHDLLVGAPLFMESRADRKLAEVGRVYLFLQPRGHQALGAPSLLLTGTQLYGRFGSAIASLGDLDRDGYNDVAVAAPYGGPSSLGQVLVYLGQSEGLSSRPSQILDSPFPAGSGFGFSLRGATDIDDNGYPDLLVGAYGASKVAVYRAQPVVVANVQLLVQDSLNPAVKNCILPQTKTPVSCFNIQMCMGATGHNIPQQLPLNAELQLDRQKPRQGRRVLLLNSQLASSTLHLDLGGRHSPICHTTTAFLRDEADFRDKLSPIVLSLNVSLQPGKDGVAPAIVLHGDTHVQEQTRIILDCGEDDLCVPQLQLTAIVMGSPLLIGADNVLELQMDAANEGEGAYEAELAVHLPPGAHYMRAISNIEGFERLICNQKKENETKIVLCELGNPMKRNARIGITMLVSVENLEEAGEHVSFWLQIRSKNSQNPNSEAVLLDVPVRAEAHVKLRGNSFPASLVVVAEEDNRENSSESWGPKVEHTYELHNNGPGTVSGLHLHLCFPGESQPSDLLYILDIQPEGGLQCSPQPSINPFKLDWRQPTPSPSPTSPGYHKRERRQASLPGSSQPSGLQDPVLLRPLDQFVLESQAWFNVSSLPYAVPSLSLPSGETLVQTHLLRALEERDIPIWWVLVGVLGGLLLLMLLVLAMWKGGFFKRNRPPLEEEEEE
- Sequence (A0A8I3PMU9 1-919): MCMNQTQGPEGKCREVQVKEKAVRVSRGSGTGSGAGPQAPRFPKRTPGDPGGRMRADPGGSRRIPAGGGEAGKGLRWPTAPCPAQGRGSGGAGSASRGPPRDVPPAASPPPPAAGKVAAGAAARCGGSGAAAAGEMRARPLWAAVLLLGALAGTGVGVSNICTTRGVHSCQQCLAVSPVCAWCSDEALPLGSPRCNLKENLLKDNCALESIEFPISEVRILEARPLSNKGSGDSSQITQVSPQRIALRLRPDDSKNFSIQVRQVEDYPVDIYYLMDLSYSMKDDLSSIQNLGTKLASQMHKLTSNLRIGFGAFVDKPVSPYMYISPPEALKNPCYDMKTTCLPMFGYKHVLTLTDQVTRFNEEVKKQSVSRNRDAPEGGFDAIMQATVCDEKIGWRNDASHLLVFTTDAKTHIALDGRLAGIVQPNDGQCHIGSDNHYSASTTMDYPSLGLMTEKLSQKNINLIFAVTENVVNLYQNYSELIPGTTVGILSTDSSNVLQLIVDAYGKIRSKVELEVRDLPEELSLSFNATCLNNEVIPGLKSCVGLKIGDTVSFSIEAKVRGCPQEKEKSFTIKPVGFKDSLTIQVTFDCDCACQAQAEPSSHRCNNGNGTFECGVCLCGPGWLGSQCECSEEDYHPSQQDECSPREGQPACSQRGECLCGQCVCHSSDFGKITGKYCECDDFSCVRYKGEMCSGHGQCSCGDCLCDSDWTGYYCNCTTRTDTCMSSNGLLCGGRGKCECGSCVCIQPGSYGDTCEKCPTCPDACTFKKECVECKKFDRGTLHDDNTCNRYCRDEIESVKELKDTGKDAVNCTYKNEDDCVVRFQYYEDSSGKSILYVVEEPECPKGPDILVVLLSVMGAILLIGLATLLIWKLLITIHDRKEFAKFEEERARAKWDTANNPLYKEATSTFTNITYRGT
- run-description: Inhibition of platelet aggregation, PRP/ADP
- Assay type: cell-based
- test-conditions: dog platelet rich plasma, 2 μM ADP, peptide added 3 min. prior to agonist; read-out: Antiaggregatory Activity IC50, μM PRP/ADP
- Description: Blood was collected (citrated to prevent coagulation) from, naive, adult mongrel dogs. Platelet rich plasma, PRP, was prepared by centrifugation at 150×g for 10 min. at room temperature. […] Aggregation was monitored in a Chrono-Log Lumi-Aggregometer. Light transmittance 5 min. after addition of the agonist was used to calculate percent aggregation according to the formula % aggregation=[(90-CR).div.(90-10)]×100, where CR is the chart reading, 90 is the baseline, and 10 is the PRP blank reading. […]
Residues, ends and D or L forms follow the SMILES beside them.
Please assign FALSE whenever IC50 is at or above 20 µM, and TRUE whenever it is below.

molecule	label-value
CC(=O)N(C)[C@@H](CCCNC(=N)N)C(=O)NCC(=O)N[C@@H](CC(=O)O)C(=O)N[C@@H](CO)C(N)=O [Example 26, N^α -Ac-N a-MeArg-Gly-Asp-Ser-NH2] (HELM PEPTIDE1{[ac].[meR].G.D.S.[am]}$$$$V2.0)	TRUE
CCNC(=O)[C@H](CO)NC(=O)[C@H](CC(=O)O)NC(=O)CNC(=O)[C@H](CCCN=C(N)N)NC(C)=O [Example 15, N^α -Ac-Arg-Gly-Asp-Ser-NHEt] (HELM PEPTIDE1{[ac].R.G.D.S.[CCN[*:1]]}$$$$V2.0)	FALSE
CN(C=O)[C@@H](CCCNC(=N)N)C(=O)NCC(=O)N[C@@H](CC(=O)O)C(=O)N[C@@H](CO)C(N)=O [Example 38, N^α -Formyl-MeArg-Gly-Asp-Ser-NH2] (HELM PEPTIDE1{[O=C[*:2]].[meR].G.D.S.[am]}$$$$V2.0)	TRUE
CC(=O)N[C@H]1CSSC2(CCCCC2)C(C(N)=O)NC(=O)[C@H](CC(=O)O)NC(=O)CNC(=O)[C@H](CCCNC(=N)N)NC1=O (some centres unmarked) [Example 2] (HELM PEPTIDE1{[ac].C.R.G.D.[O=C(C(N[*:1])C1(S[*:3])CCCCC1)[*:2]].[am]}$PEPTIDE1,PEPTIDE1,2:R3-6:R3$$$V2.0)	TRUE
CC(=O)N[C@@H](CCCNC(=N)N)C(=O)NCC(=O)N[C@@H](CC(=O)O)C(=O)N[C@@H](Cc1ccc2ccccc2c1)C(N)=O [Example 32, N^α -Ac-Arg-Gly-Asp-Nal-NH2] (HELM PEPTIDE1{[ac].R.G.D.[O=C([C@H](Cc1ccc2ccccc2c1)N[*:1])[*:2]].[am]}$$$$V2.0)	FALSE
CC(=O)N[C@H]1CSSC(C)(C)[C@@H](C(N)=O)NC(=O)[C@H](CC(=O)O)NC(=O)CNC(=O)[C@H](CCCCNC(=N)N)NC1=O [Example 13] (HELM PEPTIDE1{[ac].C.[N=C(N)NCCCC[C@H](N[*:1])C(=O)[*:2]].G.D.[Pen].[am]}$PEPTIDE1,PEPTIDE1,2:R3-6:R3$$$V2.0)	TRUE
CC(=O)N[C@@H](CCCN=C(N)N)C(=O)NCC(=O)N[C@@H](CC(=O)O)C(=O)NCCc1ccccc1	FALSE
